Ref: patent US9216999B2

The reader will find reported IC50 values listed item by item below.
Target Under Test: JAK2 (Homo sapiens (Human), UniProt O60674)
Assay Text: Enzyme assay (Assay Example^a 1), JAK2
Assay type: biochemical
Condition Notes: ATP 100 μM
The reply should contain only the number, in µM.

                                   compound  recorded_number
0  O=S(=O)(C[C@H]1CC[C@H](c2nnn3cnc4[nH]ccc4c23)CC1)NCC(F)(F)F [compound 420]            0.015

[ask] State its IC50 on JAK2 (Homo sapiens (Human), UniProt O60674): N#CCCN(C[C@H]1CC[C@H](c2nnn3cnc4[nH]ccc4c23)CC1)c1ccccc1 [compound 300]
[reply] 0.059

[ask] State its IC50 on JAK2 (Homo sapiens (Human), UniProt O60674): O=S(=O)(C[C@H]1CC[C@H](c2nnn3cnc4[nH]ccc4c23)CC1)C(F)(F)F [compound 368]
[reply] 0.0061

[ask] State its IC50 on JAK2 (Homo sapiens (Human), UniProt O60674): c1cnc2cc(CN3CCC(c4nnn5cnc6[nH]ccc6c45)CC3)ccc2n1 [compound 218]
[reply] 0.14

[ask] State its IC50 on JAK2 (Homo sapiens (Human), UniProt O60674): CC(C)NC[C@H]1CC[C@H](c2nnn3cnc4[nH]ccc4c23)CC1 [compound 331]
[reply] 0.054

[ask] State its IC50 on JAK2 (Homo sapiens (Human), UniProt O60674): OC1CN(C[C@H]2CC[C@@H](c3nnn4cnc5[nH]ccc5c34)CC2)C1 [compound 403]
[reply] 0.3

[ask] State its IC50 on JAK2 (Homo sapiens (Human), UniProt O60674): O=C1COc2ccc(NC[C@H]3CC[C@H](c4nnn5cnc6[nH]ccc6c45)CC3)cc2N1 [compound 274]
[reply] 0.029

[ask] State its IC50 on JAK2 (Homo sapiens (Human), UniProt O60674): N#C[C@H]1CC[C@H](c2nnn3cnc4[nH]ccc4c23)CC1 [compound 430]
[reply] 0.049

[ask] State its IC50 on JAK2 (Homo sapiens (Human), UniProt O60674): c1cc2c(ncn3nnc([C@H]4CC[C@H](CNC5CCCC5)CC4)c23)[nH]1 [compound 284]
[reply] 0.15

[ask] State its IC50 on JAK2 (Homo sapiens (Human), UniProt O60674): O=S(=O)(C[C@H]1CC[C@H](c2nnn3cnc4[nH]ccc4c23)CC1)c1ccccc1 [compound 364]
[reply] 0.011

----------
The reader will find reported IC50 values listed item by item below.
Target Under Test: Tyk2 (Homo sapiens (Human), UniProt P29597)
Sequence (P29597 whole entry): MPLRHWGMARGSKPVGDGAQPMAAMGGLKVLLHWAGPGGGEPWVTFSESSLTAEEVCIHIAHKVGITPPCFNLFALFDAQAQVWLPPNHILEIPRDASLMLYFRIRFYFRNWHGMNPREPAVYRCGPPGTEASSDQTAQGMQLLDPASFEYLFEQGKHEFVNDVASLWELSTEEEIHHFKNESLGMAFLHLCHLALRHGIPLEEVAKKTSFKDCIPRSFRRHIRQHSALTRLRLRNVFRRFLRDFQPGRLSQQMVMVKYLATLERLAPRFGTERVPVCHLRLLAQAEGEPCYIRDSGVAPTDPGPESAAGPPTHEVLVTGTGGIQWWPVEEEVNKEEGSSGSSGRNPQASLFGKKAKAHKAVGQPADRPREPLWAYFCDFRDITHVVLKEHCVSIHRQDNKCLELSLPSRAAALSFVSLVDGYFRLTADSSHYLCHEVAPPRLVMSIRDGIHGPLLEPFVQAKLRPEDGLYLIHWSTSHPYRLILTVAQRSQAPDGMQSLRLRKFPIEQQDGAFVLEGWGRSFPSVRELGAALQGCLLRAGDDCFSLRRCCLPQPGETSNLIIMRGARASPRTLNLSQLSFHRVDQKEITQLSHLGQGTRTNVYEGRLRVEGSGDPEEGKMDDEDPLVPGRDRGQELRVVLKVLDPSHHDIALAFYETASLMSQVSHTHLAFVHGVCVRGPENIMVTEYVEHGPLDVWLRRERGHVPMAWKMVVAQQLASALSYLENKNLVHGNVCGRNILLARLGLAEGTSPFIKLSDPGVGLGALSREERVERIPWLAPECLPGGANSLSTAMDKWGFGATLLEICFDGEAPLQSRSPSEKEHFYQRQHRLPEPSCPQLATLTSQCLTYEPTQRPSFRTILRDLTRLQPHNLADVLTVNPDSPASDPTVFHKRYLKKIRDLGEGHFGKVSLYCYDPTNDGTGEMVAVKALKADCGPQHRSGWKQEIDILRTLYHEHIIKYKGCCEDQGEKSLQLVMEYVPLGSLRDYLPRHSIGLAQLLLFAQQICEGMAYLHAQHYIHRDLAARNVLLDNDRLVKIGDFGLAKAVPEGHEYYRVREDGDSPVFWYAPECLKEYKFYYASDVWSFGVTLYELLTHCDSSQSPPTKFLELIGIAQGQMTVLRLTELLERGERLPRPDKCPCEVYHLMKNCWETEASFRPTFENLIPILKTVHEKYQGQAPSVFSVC
Assay Text: Enzyme assay (Assay Example^a 1), Tyk2
Assay type: biochemical
Condition Notes: ATP 100 μM
The reply should contain only the number, in µM.

// solved cases for IC50 follow
>>> df
                                   molecule  recorded_number
0  c1cc2c(ncn3nnc([C@H]4CC[C@H](NCC5CC5)CC4)c23)[nH]1 [396b]             0.71
1  c1cc2c(ncn3nnc([C@H]4CC[C@H](CNC5CCC5)CC4)c23)[nH]1             0.23

Next molecule, please.
[ask] Quick check: IC50 of Fc1cc(C(F)(F)F)cc(F)c1CN1CCC(c2nnn3cnc4[nH]ccc4c23)CC1 ?
[reply] 0.95

----------
Target Under Test: JAK1 (Homo sapiens (Human), UniProt P23458)
Assay Text: Enzyme assay (Assay Example^a 1), JAK1
Format: biochemical
Condition Notes: ATP 100 μM; Table^a 154
The reader will find reported IC50 values listed item by item below.
The reply should contain only the number, in µM.

// solved cases for IC50 follow
>>> df
                                   compound  recorded_number
0  Fc1cc(Cl)ccc1CN1CCC(c2nnn3cnc4[nH]ccc4c23)CC1           0.0007
1  Cc1cc(OC(F)(F)F)ccc1NC1CCC(c2nnn3cnc4[nH]ccc4c23)CC1 (centres unmarked)             0.12
2  OC(CN[C@H]1CC[C@H](c2nnn3cnc4[nH]ccc4c23)CC1)(c1ccc(F)cc1)C(F)(F)F (mixture of isomers) [200b]           0.0025
3  CC(NC[C@H]1CC[C@H](c2nnn3cnc4[nH]ccc4c23)CC1)c1ccc(F)c(F)c1 (mixture of isomers)           0.0016
4  O=C(CC(F)(F)F)N1CCCC(c2nnn3cnc4[nH]ccc4c23)C1 (racemic)            0.029

[ask] Quick check: IC50 of CS(=O)(=O)c1ccc(CN2CCC(c3nnn4cnc5[nH]ccc5c34)CC2)cc1 ?
[reply] 0.0032

[ask] Quick check: IC50 of Clc1ccc(CNC[C@H]2CC[C@H](c3nnn4cnc5[nH]ccc5c34)CC2)cc1 ?
[reply] 0.0029

[ask] Quick check: IC50 of Clc1ccc(NC2CCC(c3nnn4cnc5[nH]ccc5c34)CC2)cc1 (centres unmarked) ?
[reply] 0.026

----------
Target Under Test: JAK2 (Homo sapiens (Human))
Assay Text: Enzyme assay (Assay Example^a 1), JAK2
Assay type: biochemical
Condition Notes: ATP 100 μM; Table^a 154
The reader will find reported log10 of IC50 values listed item by item below.
Plainly stated, the numbers are log10 of IC50 given in µM.

// solved cases for log10 of IC50 follow
                                   compound  recorded_number
0  CS(=O)(=O)c1ccc(CN2CCC(c3nnn4cnc5[nH]ccc5c34)CC2)cc1 [compound 156]            -1.38
1  OCCOc1ccc(CN2CCC(c3nnn4cnc5[nH]ccc5c34)CC2)cc1 [compound 168]            -0.15
2  CC1CCN(C(=O)OC(C)(C)C)CC1c1nnn2cnc3[nH]ccc3c12 (centres unmarked) [compound 11]            -0.47
3  Clc1cnccc1CN1CCC(c2nnn3cnc4[nH]ccc4c23)CC1 [compound 163]            -1.47
4  N#CCCN(CCC#N)C[C@H]1CC[C@H](c2nnn3cnc4[nH]ccc4c23)CC1 [compound 180]            -2.72
5  CS(=O)(=O)c1ccc2c(c1)CCN2C[C@H]1CC[C@H](c2nnn3cnc4[nH]ccc4c23)CC1 [compound 189]            -1.42
6  FC(F)C(F)(F)Oc1ccc(CN2CCC(c3nnn4cnc5[nH]ccc5c34)CC2)cc1 [compound 169]            -1.28
7  Fc1ccc(CN2CCC(c3nnn4cnc5[nH]ccc5c34)CC2)c(Cl)c1 [compound 165]            -1.70
8  Fc1ccc2c(c1)CCN2C[C@H]1CC[C@H](c2nnn3cnc4[nH]ccc4c23)CC1 [compound 179]            -1.03
9  c1ccc(CCCN[C@H]2CC[C@H](c3nnn4cnc5[nH]ccc5c34)CC2)cc1 [136b]            -0.54

[ask] Quick check: log10 of IC50 of Cc1ccc(CNC[C@H]2CC[C@H](c3nnn4cnc5[nH]ccc5c34)CC2)s1 [compound 106] ?
[reply] -1.39

[ask] Quick check: log10 of IC50 of N#Cc1ccc(CN[C@H]2CC[C@H](c3nnn4cnc5[nH]ccc5c34)CC2)cc1 [137b] ?
[reply] -1.41

[ask] Quick check: log10 of IC50 of c1ccc(CN[C@H]2CC[C@H](c3nnn4cnc5[nH]ccc5c34)CC2)cc1 [194b] ?
[reply] -1.34

[ask] Quick check: log10 of IC50 of OC(CN[C@H]1CC[C@H](c2nnn3cnc4[nH]ccc4c23)CC1)(c1ccc(F)cc1)C(F)(F)F (mixture of isomers) [200b] ?
[reply] -1.49

[ask] Quick check: log10 of IC50 of Fc1ccc(CN[C@H]2CC[C@H](c3nnn4cnc5[nH]ccc5c34)CC2)cc1 [195b] ?
[reply] -1.38

[ask] Quick check: log10 of IC50 of Clc1ccc(NC[C@H]2CC[C@H](c3nnn4cnc5[nH]ccc5c34)CC2)cc1 [compound 176] ?
[reply] -0.72

----------
The reader will find reported log10(IC50) values listed item by item below.
Target Under Test: JAK2 (Homo sapiens (Human), UniProt O60674)
Assay Text: Enzyme assay (Assay Example^a 1), JAK2
Format: biochemical
Condition Notes: ATP 100 μM
Plainly stated, the numbers are log10 of IC50 given in µM.

>>> print(df.to_string())
                                   compound  recorded_number
0  O=C(CC(F)(F)F)NC[C@H]1CC[C@H](c2nnn3cnc4[nH]ccc4c23)CC1 [compound 373]            -1.96
1  OC(CN[C@H]1CC[C@H](c2nnn3cnc4[nH]ccc4c23)CC1)(c1cccnc1)C(F)(F)F (some centres unmarked) [385b]            -1.51
2  FC(F)(F)C1(NC[C@H]2CC[C@H](c3nnn4cnc5[nH]ccc5c34)CC2)CC1 [compound 292]            -1.77
3  N#C/C(=C\N1CCC(c2nnn3cnc4[nH]ccc4c23)CC1)c1ccccc1 [compound 230]            -0.89
4  Clc1ccc(C2(NC[C@H]3CC[C@H](c4nnn5cnc6[nH]ccc6c45)CC3)COC2)cc1 [compound 308]            -1.92
5  O=C(CN[C@H]1CC[C@H](c2nnn3cnc4[nH]ccc4c23)CC1)NCC(F)(F)F [384b]            -1.10
6  N#Cc1cc(CN2CCC(c3nnn4cnc5[nH]ccc5c34)CC2)ccc1C(F)(F)F [compound 243]            -0.54

Next compound, please.
[ask] State its log10(IC50) on JAK2 (Homo sapiens (Human), UniProt O60674): CN(C)C1CN(C[C@H]2CC[C@H](c3nnn4cnc5[nH]ccc5c34)CC2)C1 [compound 423]
[reply] -0.14
